Source: ChEMBL document CHEMBL1130764

biological target: UniProt Q01959; assay: Equilibrium dissociation constant (KD) for Competitive binding between [3H]WIN-35428 and the compound at human transporter-hDAT
Sequence (Q01959 whole entry): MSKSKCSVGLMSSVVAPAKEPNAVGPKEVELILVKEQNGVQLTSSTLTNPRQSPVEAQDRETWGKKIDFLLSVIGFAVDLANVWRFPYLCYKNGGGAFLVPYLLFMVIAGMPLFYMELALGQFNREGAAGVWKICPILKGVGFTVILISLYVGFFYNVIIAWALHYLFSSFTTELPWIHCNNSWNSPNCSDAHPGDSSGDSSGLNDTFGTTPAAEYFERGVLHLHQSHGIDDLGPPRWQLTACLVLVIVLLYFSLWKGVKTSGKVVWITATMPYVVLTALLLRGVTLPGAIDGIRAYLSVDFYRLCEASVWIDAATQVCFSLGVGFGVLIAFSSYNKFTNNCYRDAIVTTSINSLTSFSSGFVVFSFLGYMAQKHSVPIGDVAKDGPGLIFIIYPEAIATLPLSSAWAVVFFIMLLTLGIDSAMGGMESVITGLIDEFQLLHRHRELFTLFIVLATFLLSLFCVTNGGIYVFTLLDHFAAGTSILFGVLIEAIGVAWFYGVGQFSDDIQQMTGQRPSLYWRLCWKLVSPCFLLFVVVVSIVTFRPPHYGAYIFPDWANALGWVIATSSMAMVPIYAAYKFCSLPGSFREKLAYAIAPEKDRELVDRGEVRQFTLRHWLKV
PARAMETER: Kd (µM)
Respond with the bare value in µM.

Challenge: Returns the measured Kd for the input compound. Input: CN(C)C[C@@H](c1ccc2ccccc2c1)[C@@H](O)c1ccccc1 (racemic)
Response given: 0.07

Challenge: // returns reported Kd for input CCOc1ccccc1OCC1CNCCO1 (racemic) [VILOXAZINE]
Response given: 0.155

Challenge: Reported Kd, compound CC(C)(C)[C@H](O)[C@@H](CN)c1ccc2ccccc2c1 (racemic) : ____
Response given: 27

Challenge: Which Kd value belongs to NC[C@@H](c1ccccc1)[C@@H](O)c1ccccc1 (racemic) ?
Response given: 24
